Experiment: survival after telomere uncapping, modulators, primary screen, cell-based (AID 1259312);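 also: virus expresses mutant telomerase RNA that uncaps telomeres and kills cells; compound added 2 days after infection so exposure lasts 3 days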
Conditions: HCT116 + Ad-hTR-mut, MTT, 5 d; at 10 µM
Out of some 4,500 compounds screened, about 200 (4.4%) were called active.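 The calls were made as follows: active = cell survival measured by absorbance rises more than 2.5-fold over infected cells without compound; inactive = the rest.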 Only a selection was taken, and actives are over-represented in it overall.
Select the correct class. Options are active, inactive and nothing else.

[[record]]
molecule = "N#CC1=C(N)Oc2c(c3ccccc3oc2=O)C12C(=O)Nc1ccc(Br)cc12 (stereo not given)"
discrete_label = "active"

[[record]]
molecule = "Cc1ccc2[nH]c3nc4ccccc4nc3c2c1"
discrete_label = "inactive"

[[record]]
molecule = "O=C1N=C(N2CCCC2)S/C1=C\\c1ccc(Cl)cc1"
discrete_label = "inactive"

[[record]]
molecule = "O=C1c2ccccc2NC2(C(=O)Nc3ccccc32)N1c1ccc2c(c1)oc1ccccc12 (stereo not given)"
discrete_label = "inactive"

[[record]]
molecule = "COc1cc(CSC(=N)N)c([N+](=O)[O-])cc1OC"
discrete_label = "inactive"

[[record]]
molecule = "COc1ccc(C(=CCl)c2ccc(OC)c(Br)c2)cc1Br"
discrete_label = "inactive"

[[record]]
molecule = "O=c1c2ccccc2c2nc3c(c(-c4ccccc4)c12)c(=O)c1ccccc13"
discrete_label = "inactive"

[[record]]
molecule = "O=C(O)c1csc2c1CCCC2"
discrete_label = "active"


Asked: Tell me the assay call for CCSCCOC(=O)C1=C(C)NC2=C(C(=O)CCC2)C1c1ccsc1 (stereo not given) please.
Given back: inactive

Asked: Tell me the assay call for Cc1cccc(N2CCC(N=CN3CCOCC3)=N2)c1 please.
Given back: active

Asked: Tell me the assay call for O=C(O)Cn1c(O)c(/C=C2/C=c3ccccc3=NC2=O)sc1=S please.
Given back: inactive

---

Experiment: survival after telomere uncapping, modulators, primary screen, cell-based (AID 1259312)
Conditions: HCT116 + Ad-hTR-mut, MTT, 5 d; at 10 µM
In all, about 4,500 compounds went through this assay and about 200 (4.4%) were called active.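 How the source made its calls: active means cell survival measured by absorbance rises more than 2.5-fold over infected cells without compound; inactive means the rest.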 What follows is part of a selection rich in actives, with near analogues and random picks from the rest.
Select the correct class. Options are active, inactive and nothing else.

Some solved cases for reference:
[[record]]
compound = "N#CC1=C(N)C(C#N)=c2s/c(=C/c3ccc(Cl)cc3Cl)c(=O)n2C1c1ccc(Cl)cc1Cl (stereo not given)"
discrete_label = "inactive"

[[record]]
compound = "Cc1ccc(C)n1-c1ccc(NC2CCCC2)c([N+](=O)[O-])c1"
discrete_label = "inactive"

[[record]]
compound = "N#CC1=C(N)C(C#N)=c2s/c(=C/c3cccc(F)c3)c(=O)n2C1c1cccc(F)c1 (stereo not given)"
discrete_label = "active"


Asked: Tell me the assay call for O/N=C(\c1ccccc1)C(O)c1ccccc1 (stereo not given) please.
Given back: inactive

Asked: Tell me the assay call for CCCN(CCC)C(=O)C(=O)N(CCC)CCC please.
Given back: inactive

Asked: Tell me the assay call for CC1=C/C(=C(\c2cc(C)c(O)cc2C)c2ccccc2S(=O)(=O)O)C(C)=CC1=O please.
Given back: inactive

Asked: Tell me the assay call for O=c1/c(=C\c2ccco2)sc2nnc(-c3ccccc3)n12 please.
Given back: inactive

Asked: Tell me the assay call for O=[N+]([O-])c1cc(Cl)ccc1NC1CCCCC1 please.
Given back: active

Asked: Tell me the assay call for N#CC1=C(N)C(C#N)=c2s/c(=C/c3c(F)cccc3Cl)c(=O)n2C1c1c(F)cccc1Cl (stereo not given) please.
Given back: active

Asked: Tell me the assay call for N#CC1=C(N)C(C#N)=c2s/c(=C/c3ccc(F)cc3)c(=O)n2C1c1ccc(F)cc1 (stereo not given) please.
Given back: inactive

---

Assay: survival after telomere uncapping, modulators, primary screen, cell-based (AID 1259312)
Details: HCT116 + Ad-hTR-mut, MTT, 5 d; at 10 µM, active compounds read high
About 200 (4.4%) of roughly 4,500 compounds were called active. The entries come from a sample that favours actives as a whole.
Kindly return yes if reported fold change is no lower than 1; return no if it is lower.

Some solved cases for reference:
[[record]]
mol = "CN1C(=O)/C(=C2\\SC(=S)N(CCS(=O)(=O)O)C2=O)c2ccccc21"
discrete_label = "yes"

[[record]]
mol = "Nc1n[nH]c(-c2cccnc2)n1"
discrete_label = "yes"

[[record]]
mol = "c1ccc(-c2nc(-c3cccnc3)[nH]c2-c2ccccc2)cc1"
discrete_label = "yes"

[[record]]
mol = "COc1cc2c(Cc3c4c5c(cc(OC)c(OC)c5c5c(OC)c(OC)ccc35)CCN4C)c3c4c(cc(OC)c(OC)c4c2cc1OC)CCN3C"
discrete_label = "no"


Asked: Can O=C(Nc1ccccc1)Nc1ccc2c(c1)OCCO2 be said to have fold change at or above 1?
Given back: no

---

Assay: survival after telomere uncapping, modulators, primary screen, cell-based (AID 1259312);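 also: virus expresses mutant telomerase RNA that uncaps telomeres and kills cells; compound added 2 days after infection so exposure lasts 3 days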
Conditions: HCT116 + Ad-hTR-mut, MTT, 5 d; at 10 µM
Among all 4,500 compounds or so, about 200 (4.4%) were called active.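 How the source made its calls: active means cell survival measured by absorbance rises more than 2.5-fold over infected cells without compound; inactive means the rest.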 This excerpt belongs to a sample that is enriched for actives.
Select the correct class. Options are active, inactive and nothing else.

Some solved cases for reference:
[[record]]
compound = "O=c1[nH]c(O)c(C=Nc2ccccc2Br)c(=O)[nH]1"
discrete_label = "inactive"

[[record]]
compound = "Cc1cc(/C=c2\\sc3nc4ccccc4n3c2=O)c(C)n1C1CCCC1"
discrete_label = "inactive"

[[record]]
compound = "COc1ccc(-c2nn(CN3CCN(C(c4ccccc4)c4ccccc4)CC3)c(=S)n2C)cc1"
discrete_label = "inactive"

[[record]]
compound = "NNC(=O)c1cccc(C(=O)NN)n1"
discrete_label = "active"


Asked: Tell me the assay call for O=[N+]([O-])c1cccc(N2Cc3ccccc3C2)c1 please.
Given back: inactive

Asked: Tell me the assay call for N#Cc1c(N)nc2c(c1-c1cccc(Br)c1)CCCCCC2 please.
Given back: inactive

Asked: Tell me the assay call for CC(=O)/C(=C1/OC(=O)c2ccccc21)c1ccc(C(C)=O)cc1 please.
Given back: active

Asked: Tell me the assay call for CN(C)CCCNc1ccc([N+](=O)[O-])cc1Cl please.
Given back: active

Asked: Tell me the assay call for NCCCNc1ccc(Cl)cc1[N+](=O)[O-] please.
Given back: inactive

Asked: Tell me the assay call for CCN(CC)CCNc1ccc(Cl)cc1[N+](=O)[O-] please.
Given back: active

Asked: Tell me the assay call for CCCCCCCCCCCCCCCC(=O)O please.
Given back: inactive

Asked: Tell me the assay call for O=[N+]([O-])c1ccc(Cl)c(N2CCCC2)c1 please.
Given back: inactive

Asked: Tell me the assay call for N#CC1=C(N)OC2=C(C(=O)CCC2)C1c1ccc(Br)s1 (stereo not given) please.
Given back: inactive

Asked: Tell me the assay call for CS(=O)(=O)Nc1ccc(F)cc1F please.
Given back: inactive

---

Assay: survival after telomere uncapping, modulators, primary screen, cell-based (AID 1259312);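 also: virus expresses mutant telomerase RNA that uncaps telomeres and kills cells; compound added 2 days after infection so exposure lasts 3 days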
Settings: HCT116 + Ad-hTR-mut, MTT, 5 d; at 10 µM, active compounds read high
About 200 (4.4%) of roughly 4,500 compounds were called active. Shown is part of a subset that was picked to be rich in actives.
Kindly return yes (1) if reported fold change is no lower than -1; return no (0) if it is lower.

Some solved cases for reference:
[[record]]
compound = "OC[C@H]1O[C@@H](OC[C@H]2O[C@@H](O)[C@H](O)[C@@H](O)[C@@H]2O)[C@H](O)[C@@H](O)[C@@H]1O"
discrete_label = "no (0)"

[[record]]
compound = "O=[N+]([O-])c1ccc(OC2OC(CO)C(O)C(O)C2O)cc1 (stereo not drawn)"
discrete_label = "yes (1)"

[[record]]
compound = "Cc1cccc(NS(=O)(=O)c2cc(Cl)ccc2Cl)n1"
discrete_label = "yes (1)"

[[record]]
compound = "OC[C@@H]1OC(O)[C@@H](O)[C@H](O)[C@H]1O[C@H]1O[C@H](CO)[C@@H](O)[C@H](O)[C@H]1O (stereo partly drawn)"
discrete_label = "yes (1)"

[[record]]
compound = "O=S(=O)(NCc1ccc2c(c1)OCO2)c1ccc2ccccc2c1"
discrete_label = "no (0)"

[[record]]
compound = "CC(C)(C)[Si](C)(C)N1C(=O)C[C@H]1C(=O)O"
discrete_label = "yes (1)"


Kindly review the next compound as well.
Asked: Can CC1CCCN(c2nc3ccccn3c(=O)c2C=O)C1 (stereo not drawn) be said to have fold change at or above -1?
Given back: no (0)

---

Assay: survival after telomere uncapping, modulators, primary screen, cell-based (AID 1259312);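 also: virus expresses mutant telomerase RNA that uncaps telomeres and kills cells; compound added 2 days after infection so exposure lasts 3 days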
Settings: HCT116 + Ad-hTR-mut, MTT, 5 d; at 10 µM
The campaign covered roughly 4,500 compounds. About 200 (4.4%) were called active.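 How the source made its calls: active means cell survival measured by absorbance rises more than 2.5-fold over infected cells without compound; inactive means the rest.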 What follows is part of a selection rich in actives, with near analogues and random picks from the rest.
Select the correct class. Options are active, inactive and nothing else.

Some solved cases for reference:
[[record]]
molecule = "O=C(c1ccc(COc2ccc(Cl)cc2Cl)o1)n1cc(Br)cn1"
discrete_label = "inactive"

[[record]]
molecule = "Clc1cccc(N=Cc2cc3ccccc3nc2Cl)c1Cl"
discrete_label = "active"

[[record]]
molecule = "O=S(=O)(c1ccc(Oc2ccc(Br)cc2)cc1)N1CCOCC1"
discrete_label = "inactive"

[[record]]
molecule = "Oc1ccc2c(c1)c1c3n2CCNC3CCC1 (configuration not stated)"
discrete_label = "inactive"

[[record]]
molecule = "O=C1C=CC(=O)N1c1ccc(Cl)c(Cl)c1"
discrete_label = "inactive"

[[record]]
molecule = "Clc1ccc(N=Cc2ccccc2Cl)nc1"
discrete_label = "inactive"

[[record]]
molecule = "N#CC(C#N)C(c1ccsc1)c1c(-c2ccccc2)[nH][nH]c1=O (configuration not stated)"
discrete_label = "active"

[[record]]
molecule = "COc1cc(N=Cc2cc3ccccc3nc2Cl)c(OC)cc1Cl"
discrete_label = "active"

[[record]]
molecule = "COc1cc2c(cc1N)OCO2"
discrete_label = "inactive"

[[record]]
molecule = "Cc1cc(=O)[nH]c(SCc2ccon2)n1"
discrete_label = "inactive"


Asked: Tell me the assay call for COc1cc(OC)cc(C2SC(N)=C(C#N)C(N)=C2C#N)c1 (configuration not stated) please.
Given back: inactive

Asked: Tell me the assay call for COc1cc(N=Cc2cc(Cl)cc(Cl)c2O)c(OC)cc1Cl please.
Given back: inactive
